system: human GCGR (full-length glucagon receptor of 477 amino acids) (human, UniProt P47871 26-477)
Sequence (P47871 26-477 limits assumed): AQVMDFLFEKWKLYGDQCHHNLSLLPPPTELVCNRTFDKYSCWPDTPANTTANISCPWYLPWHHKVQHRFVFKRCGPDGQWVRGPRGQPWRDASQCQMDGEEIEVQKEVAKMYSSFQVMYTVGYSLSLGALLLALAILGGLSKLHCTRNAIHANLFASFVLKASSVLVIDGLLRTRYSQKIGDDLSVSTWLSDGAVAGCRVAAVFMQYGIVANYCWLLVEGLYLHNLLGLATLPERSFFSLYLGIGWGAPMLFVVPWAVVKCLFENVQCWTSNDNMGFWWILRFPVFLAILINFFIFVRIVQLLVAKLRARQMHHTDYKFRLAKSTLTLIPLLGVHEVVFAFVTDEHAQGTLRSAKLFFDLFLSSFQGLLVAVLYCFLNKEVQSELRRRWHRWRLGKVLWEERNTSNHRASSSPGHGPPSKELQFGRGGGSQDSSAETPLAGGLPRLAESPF
assay_info: cell-based or functional assay
outcome_measure: IC50 (nM)
Just the number in nM, nothing appended.

Record excerpt, results attached:
hu1803-6 (antibody, human IgG4 S228P, kappa, F234A L235A, V domains shown) VH: EVQLVQSGAEVKKPGASVKVSCKASGYTFTDYWIEWVRQAPGQGLEWMGEILPGSTYTNYNEKFKGRVTFTADTSTSTAYMELSSLRSEDTAVYYCARGLSTLMAVDYFDYWGQGTTVTVSS VL: DIQMTQSPSSLSASVGDRVTITCRASQDISNYLNWYQQKPGGAVKLLIYYSSTLHSGVPSRFSGSGSGTDYTLTISSLQPEDFATYFCQQTNIFPWTFGGGTKVEIKR ... 77.5
hu1810-5 (antibody, human IgG4 S228P, kappa, F234A L235A, V domains shown) VH: QVQLVQSGAEVKKPGSSVKVSCKASGGTFSNYAISWVRQAPGQGLEWMGEIYPTSGNTYYNEKFKGRVTITADKSTSTAYMELSSLRSEDTAVYYCARGVITTVVSTDYFDYWGQGTLVTVSS VL: DIQMTQSPSSLSASVGDRVTITCRASLDISNYLNWYQQKPGKAVKLLIYYTSTLHSGVSSRFSGSGSGTDYTLTISSLQPEDFATYYCQQGNMVPYTFGGGTKVEIKR ... 216
hu1803-11 (antibody, human IgG4 S228P, kappa, F234A L235A, V domains shown) VH: EVQLVQSGAEVKKPGASVKVSCKASGYTFTDYWIEWVRQAPGQGLEWIGEILPGSTYTNYNEKFKGRATFTADTSTSTAYMELSSLRSEDTAVYYCSRGLSTLMAVDYFDYWGQGTTVTVSS VL: DIQMTQSPSSLSASVGDRVTITCRASQDISNYLNWYQQKPGKAVKLLIYYSSTLHSGVPSRFSGSGSGTDYTLTISSLQPEDFATYYCQQTNIFPWTFGGGTKVEIKR ... 88.7
hu1810-2 (antibody, human IgG4 S228P, kappa, F234A L235A, V domains shown) VH: QVQLVQSGAEVKKPGSSVKVSCKASGGTFSNYAISWVRQAPGQGLEWMGEIYPTSGNTYYNEKFKGRVTITADRSTSTMYMELSSLRSEDTAVYYCASGVITTVVSTDYFDYWGQGTLVTVSS VL: DIQMTQSPSSLSASVGDRVTITCRASLDISNYLNWYQQKPGKAPKLLIYYTSTLHSGVPSRFSGSGSGTDFTLTISSLQPEDFATYYCQQGNMVPYTFGGGTKVEIKR ... 106

# context switch: different binder, same IC50
Measured IC50 of hu1803-5 (antibody, human IgG4 S228P, kappa, F234A L235A, V domains shown) VH: EVQLVQSGAEVKKPGASVKVSCKASGYTFTDYWIEWVRQAPGQGLEWMGEILPGSTYTNYNEKFKGRVTMTRDTSTSTVYMELSSLRSEDTAVYYCARGLSTLMAVDYFDYWGQGTTVTVSS VL: DIQMTQSPSSLSASVGDRVTITCRASQDISNYLNWYQQKPGGAVKLLIYYSSTLHSGVPSRFSGSGSGTDYTLTISSLQPEDFATYFCQQTNIFPWTFGGGTKVEIKR : 79
